B1: ADAMTSL2 (parent)
chain: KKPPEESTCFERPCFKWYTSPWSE

# Variants of: B1
# ASSAY_OVERVIEW: protein stability index of a GFP-peptide fusion (GPS, HEK-293T) (PSI 1-6); higher = more stable;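 note: lentivirally expressed fusions sorted by FACS into six bins by GFP to DsRed ratio, PSI derived from sequencing read proportions per bin multiplied by bin number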
# STUDY_CONDITIONS: c terminus: a fixed tail appended
For each of the variants below, state its protein stability index.

Please report the measured protein stability index for `C14D` 3.26

Kindly indicate its recorded protein stability index. Item: `E11A` 2.59

Provide only the value of recorded protein stability index for `P21K` 2.7

Return value of protein stability index for input `S7F` , no commentary. 2.11

Please look at this variant and report its protein stability index: `C14E` 2.89

Give recorded protein stability index. `S23G` 1.91

Quick one: give measured protein stability index for `E5R` 2.02

Supply reported protein stability index belonging to this variant: `P3F` 2

Query protein stability index for `W22A` 4.34

Give a short answer stating reported protein stability index for `E24P` . 2.4

Supply recorded protein stability index for `P21E` here. 2.72

Look up and report measured protein stability index for this entry: `E11K` 2.11

Answer with the recorded protein stability index for the variant listed here: `W17A` 3.79

State its protein stability index for this variant: `S7W` 1.66

For the variant `K1H` , report protein stability index. 2.33

Using known records, supply protein stability index for `K16I` 1.77

Please give the documented protein stability index of `T8N` 2.56

Given `W22V` , respond with its protein stability index. 3.27

Identify protein stability index associated with the variant `W17N` 3.42

Kindly indicate its recorded protein stability index. Item: `S7Y` 2.64

Identify measured protein stability index associated with `W22Q` 3.82

Quote protein stability index reported for `T8L` please. 3.01
